# run.description: clinical
# assay.context: human, in vivo, po, Tmax, Mean ± SD (% CV)
# Protocol: A Phase 2, randomized, double-blind, multi-center study was conducted evaluating the efficacy, safety, and tolerability of veliparib in combination with carboplatin and paclitaxel versus placebo in combination with carboplatin and paclitaxel in subjects with documented metastatic or advanced non-small cell lung cancer (NSCLC) as first-line chemotherapy. Patients were randomized in a 2:1 ratio to either veliparib+carboplatin/paclitaxel or placebo+carboplatin/paclitaxel. […]
readout.type: Tmax (h)
Express the result in h but write the number alone.

Query :: Can you share its Tmax? I mean this compound: C[C@]1(c2nc3c(C(N)=O)cccc3[nH]2)CCCN1 [Veliparib]
Result :: 1.34

Reference for the values: patent US9623009B2
